target: L858R/T790M/C797S EGFR (Homo sapiens, UniProt P00533, C797S/L858R/T790M); construct: expressed in transfected cells; host or cells: H1975 clone #25 (lentiviral over-expression, endogenous EGFR knocked out by sgRNA); test: EGFR degradation HTRF assay in H1975-clone #25 (LTC) cells; type: cell-based; details: H1975 # 25-LTC (L858R/T790M/C797S), 16h treatment, HTRF
Sequence (P00533 25-1210 T790M/C797S/L858R): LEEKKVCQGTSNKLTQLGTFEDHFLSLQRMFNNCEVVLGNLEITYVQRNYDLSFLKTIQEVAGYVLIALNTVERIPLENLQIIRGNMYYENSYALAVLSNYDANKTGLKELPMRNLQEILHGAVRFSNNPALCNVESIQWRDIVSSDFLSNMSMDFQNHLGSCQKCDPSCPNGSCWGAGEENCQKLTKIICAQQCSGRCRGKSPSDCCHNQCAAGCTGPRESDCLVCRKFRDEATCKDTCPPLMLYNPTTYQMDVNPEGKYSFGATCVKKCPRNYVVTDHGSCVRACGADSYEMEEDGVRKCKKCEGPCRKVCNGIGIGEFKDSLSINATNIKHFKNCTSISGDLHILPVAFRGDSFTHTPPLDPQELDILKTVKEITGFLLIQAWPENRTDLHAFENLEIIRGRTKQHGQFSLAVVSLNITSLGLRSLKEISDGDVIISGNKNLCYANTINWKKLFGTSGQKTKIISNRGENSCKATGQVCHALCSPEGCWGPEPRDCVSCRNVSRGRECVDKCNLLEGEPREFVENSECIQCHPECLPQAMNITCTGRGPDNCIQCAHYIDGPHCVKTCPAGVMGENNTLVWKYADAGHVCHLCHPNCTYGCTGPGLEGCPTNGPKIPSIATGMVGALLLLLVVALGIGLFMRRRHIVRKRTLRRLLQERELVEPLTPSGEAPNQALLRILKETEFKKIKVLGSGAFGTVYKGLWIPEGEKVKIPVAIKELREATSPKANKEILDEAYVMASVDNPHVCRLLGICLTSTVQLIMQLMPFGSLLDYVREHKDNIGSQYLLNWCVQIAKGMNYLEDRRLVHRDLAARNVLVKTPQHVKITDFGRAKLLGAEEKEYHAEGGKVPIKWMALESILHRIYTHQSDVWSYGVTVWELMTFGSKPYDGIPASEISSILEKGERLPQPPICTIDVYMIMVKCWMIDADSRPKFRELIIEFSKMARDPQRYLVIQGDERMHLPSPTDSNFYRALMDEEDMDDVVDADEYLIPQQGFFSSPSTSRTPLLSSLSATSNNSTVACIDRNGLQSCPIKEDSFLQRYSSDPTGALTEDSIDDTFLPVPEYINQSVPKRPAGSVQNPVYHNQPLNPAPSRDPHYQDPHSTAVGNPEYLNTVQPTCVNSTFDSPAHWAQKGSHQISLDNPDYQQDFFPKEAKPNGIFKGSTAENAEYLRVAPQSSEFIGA
observationType: DC50 (nM)

compound | DC50 (nM)
CO[C@@H]1CN(CCc2cc(F)c([C@H]3CCC(=O)NC3=O)c(F)c2)CC[C@@H]1NC(=O)c1ccc2c(c1)N1C[C@H](C)CCCOc3c(cnn3C)-c3cc(cc(C)n3)C(=O)/N=C/1N2 [Example 245] | 0.487
Cc1cc2cc(n1)-c1cnn(C)c1OCCC[C@@H](C)CN1/C(=N/C2=O)Nc2ccc(N3CC(C(=O)N4CCN(c5cc(F)c([C@H]6CCC(=O)NC6=O)c(F)c5)CC4)C3)cc21 [Example 354] | 0.59
COC[C@@H]1CN(c2cc(F)c([C@H]3CCC(=O)NC3=O)c(F)c2)CCN1C(=O)C1CCN(c2ccc3c(c2)N2C[C@H](C)CCCOc4c(cnn4C)-c4cc(cc(C)n4)C(=O)/N=C/2N3)CC1 [Example 357] | 0.824

I: Cc1cc2cc(n1)-c1cnn(C)c1OCCC[C@@H](C)CN1/C(=N/C2=O)Nc2ccc(N3CCN(C4CCN(c5cc(F)c([C@H]6CCC(=O)NC6=O)c(F)c5)CC4)[C@H](C)C3)cc21 [Example 388]
II: Cc1cc2cc(n1)-c1cnn(C)c1OCCC[C@@H](C)CN1/C(=N/C2=O)Nc2ccc(N3CCN(CCc4cc(F)c([C@H]5CCC(=O)NC5=O)c(F)c4)CC3)cc21 [Example 320]
Hi, I'm comparing I with II and wondering which one has the bigger number for DC50. Any idea? Answer format: the label of the selected item.
I

---

target: L858R/T790M/C797S EGFR (Homo sapiens, UniProt P00533, C797S/L858R/T790M); construct: expressed in transfected cells; host or cells: H1975 clone #25 (lentiviral over-expression, endogenous EGFR knocked out by sgRNA); test: EGFR degradation HTRF assay in H1975-clone #25 (LTC) cells; type: cell-based; conditions: H1975 # 25-LTC (L858R/T790M/C797S), 16h treatment, HTRF
observationType: DC50 (nM)

Use the examples below as a reference point.
molecule | measValue
Cc1cc2cc(n1)-c1cnn(C)c1OCCC[C@@H](C)CN1/C(=N/C2=O)Nc2ccc(C(=O)N(C)C3CC4CCCC(C3)N4CCc3cc(F)c([C@H]4CCC(=O)NC4=O)c(F)c3)cc21 (some centres unmarked) [Example 266] | 1.51
Cc1cc2cc(n1)-c1cnn(C)c1OCCC[C@@H](C)CN1/C(=N/C2=O)Nc2ccc(CN3CCN(C(=O)C4CN(c5ccc(F)c6c5n(C)c(=O)n6C5CCC(=O)NC5=O)C4)CC3)cc21 (some centres unmarked) [Example 94] | 0.5
Cc1cc2cc(n1)-c1cnn(C)c1OCCC[C@@H](C)CN1/C(=N/C2=O)Nc2cc(C)c(CN3CCN(CC4CN(c5cc(F)c([C@H]6CCC(=O)NC6=O)c(F)c5)C4)CC3)cc21 [Example 147] | 1.83

1: Cc1cc2cc(n1)-c1cnn(C3CC3)c1OCCC[C@@H](C)CN1/C(=N/C2=O)Nc2ccc(CN3CCN(C(=O)[C@H]4CN(c5cc(F)c([C@H]6CCC(=O)NC6=O)c(F)c5)CC4(C)C)CC3)cc21 [Example 165]
2: Cc1cc2cc(n1)-c1cnn(C)c1OCCC[C@@H](C)CN1/C(=N/C2=O)Nc2ccc(C(=O)N3CC[C@@H](NCCc4cc(F)c([C@H]5CCC(=O)NC5=O)c(F)c4)C3)cc21 [Example 296]
Kindly identify which of 1 and 2 has the larger recorded DC50 value. Response format: the label of the selected entry.
1
(1: 3.1 nM, 2: 0.707 nM)
